Tested System: Sigma non-opioid intracellular receptor 1 (Cavia porcellus, UniProt Q60492)
Sequence (Q60492 whole entry): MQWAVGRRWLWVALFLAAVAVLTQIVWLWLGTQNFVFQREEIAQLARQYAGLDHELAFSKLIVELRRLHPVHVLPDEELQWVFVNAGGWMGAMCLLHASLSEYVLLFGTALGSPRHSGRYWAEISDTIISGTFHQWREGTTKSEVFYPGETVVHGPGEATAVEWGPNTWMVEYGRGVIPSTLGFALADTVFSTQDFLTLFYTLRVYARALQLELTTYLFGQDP
Test Protocol: Displacement of [3H]-(+)-pentazocine from sigma1 receptor in guinea pig brain membranes incubated for 150 mins by scintillation counting method
What pKi was measured for each of the following?
For clarity, pKi is expressed as the negative log10 of concentration in mol/L.

In: # get_value(readout= pKi, system= Sigma non-opioid intracellular receptor 1 (Cavia porcellus, UniProt Q60492)) for Clc1ccc2sc(SCCN3CCCCCC3)nc2c1
Out: 6.39

In: Again, but for O=c1oc2ccc(Cl)cc2n1CCCCN1CCCCCC1
Out: 8.64

In: Again, but for O=c1oc2ccc(Cl)cc2n1CCN1CCCCCC1
Out: 7.00

In: Again, but for Clc1ccc2oc(SCCCCN3CCCCCC3)nc2c1
Out: 8.62

In: Again, but for O=c1sc2ccc(Cl)cc2n1CCCCN1CCCCCC1
Out: 9.11

In: Again, but for Clc1ccc2sc(SCCCCN3CCCCCC3)nc2c1
Out: 8.07

In: Again, but for O=c1sc2ccc(Cl)cc2n1CCCN1CCCCCC1
Out: 8.13

In: Again, but for Clc1ccc2oc(SCCN3CCCCCC3)nc2c1
Out: 8.71

In: Again, but for O=c1sc2ccc(Cl)cc2n1CCN1CCCCCC1
Out: 6.74

In: Again, but for Clc1ccc2sc(SCCCN3CCCCCC3)nc2c1
Out: 8.90

In: Again, but for O=c1oc2ccc(Cl)cc2n1CCCN1CCCCCC1
Out: 8.20

In: Again, but for Clc1ccc2oc(SCCCN3CCCCCC3)nc2c1
Out: 8.63

* * *

Test Protocol: Selectivity ratio of Ki for sigma2 receptor (unknown origin) to Ki for sigma1 receptor in guinea pig brain cortex membranes
Format: cell membranes
Mark 1 (yes) for Ratio Ki under 7, 0 (no) if at or over.

In: Quick check: Ratio Ki of Clc1ccc2sc(SCCCCN3CCCCCC3)nc2c1 under 7?
Out: 1 (yes)

In: Again, but for O=c1oc2ccc(Cl)cc2n1CCN1CCCCCC1
Out: 1 (yes)

In: Again, but for Clc1ccc2oc(SCCCCN3CCCCCC3)nc2c1
Out: 1 (yes)

In: Again, but for O=c1sc2ccc(Cl)cc2n1CCN1CCCCCC1
Out: 0 (no)

In: Again, but for O=c1sc2ccc(Cl)cc2n1CCCCN1CCCCCC1
Out: 0 (no)

In: Again, but for O=c1oc2ccc(Cl)cc2n1CCCCN1CCCCCC1
Out: 1 (yes)

In: Again, but for Clc1ccc2oc(SCCCN3CCCCCC3)nc2c1
Out: 1 (yes)

In: Again, but for O=c1oc2ccc(Cl)cc2n1CCCN1CCCCCC1
Out: 0 (no)

In: Again, but for O=c1sc2ccc(Cl)cc2n1CCCN1CCCCCC1
Out: 0 (no)

In: Again, but for Clc1ccc2oc(SCCN3CCCCCC3)nc2c1
Out: 0 (no)
